The measured values listed here are drawn from patent US20050234046A1.

// values below are reported pEC50
target of assay: PPAR alpha (Homo sapiens, UniProt Q07869)
Construct: expressed in transfected cells; host or cells: CV-1 cells
Sequence (Q07869 239-466 limits assumed): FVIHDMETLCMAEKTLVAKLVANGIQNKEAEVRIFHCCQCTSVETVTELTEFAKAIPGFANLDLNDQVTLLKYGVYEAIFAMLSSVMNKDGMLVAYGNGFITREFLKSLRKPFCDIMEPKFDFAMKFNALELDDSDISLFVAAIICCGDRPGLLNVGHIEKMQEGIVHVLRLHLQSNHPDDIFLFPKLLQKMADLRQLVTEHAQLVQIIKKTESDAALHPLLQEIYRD
assay summary: Transient transfection (transactivation) assay in CV-1 cells, GAL4-PPAR chimera, luciferase reporter
Assay type: cell-based
Description: Compounds may be screened for functional potency in transient transfection assays in CV-1 cells or other cell types for their ability to activate the PPAR subtypes (transactivation assay). […] Luciferase activity was then assayed with Britelite (Perkin Elmer) following the manufacturer's protocol and measured with either the Perkin Elmer Viewlux or Molecular Devices Acquest Xsee, for example, Kliewer, S. A., et. al. Cell 1995, 83, 813-819). […]
pEC50: −log10 of the molar value.

See these solved cases before continuing.
compound	target of assay	measurement kind	data value
Cc1ccc(S(=O)(=O)N2CCN(c3ccc(C(F)(F)F)cn3)C(C(F)(F)F)C2)cc1CC(=O)O (centres unmarked)	PPAR alpha (Homo sapiens, UniProt Q07869)	pEC50	4.00 to 5.30
Cc1cc(CC(=O)O)cc(S(=O)(=O)N2CCC(c3ccc(Cl)cc3)CC2)c1	PPAR alpha (Homo sapiens, UniProt Q07869)	pEC50	< 4.00
Cc1ccc(S(=O)(=O)N2CCN(c3ncc(Cl)cn3)CC2)cc1CC(=O)O	PPAR alpha (Homo sapiens, UniProt Q07869)	pEC50	4.00 to 5.30
Cc1ccc(S(=O)(=O)N2CCCN(c3ncc(C(F)(F)F)cc3Cl)CC2)cc1CC(=O)O	PPAR alpha (Homo sapiens, UniProt Q07869)	pEC50	> 5.30
CCC1CN(c2ccc(C(F)(F)F)c(Cl)c2)CCN1S(=O)(=O)c1ccc(C)c(CC(=O)O)c1 (centres unmarked)	PPAR alpha (Homo sapiens, UniProt Q07869)	pEC50	> 5.30

Now for a further compound.
Consider the compound Cc1ccc(S(=O)(=O)N2CCN(c3ccc(C(F)(F)F)cn3)CC2C(C)C)cc1CC(=O)O (centres unmarked) . State its measured pEC50.
4.00 to 5.30
